Origin of values: ChEMBL document CHEMBL6087416

Below: a set of entries, each annotated with reported log10(EC50).
Test system: Human immunodeficiency virus 1
procedureSummary: Antiviral activity against NNRTI-resistant HIV-1 harboring RT K103N mutant infected in human MT4 cells assessed as protection against virus-induced cytopathic effect incubated for 5 days by MTT assay
Type: functional, organism-based
condition: Human immunodeficiency virus 1, MT4, 120 h
The figures below represent log10 of EC50, where EC50 is stated in nM.

Cc1cc(/C=C/C#N)cc(C)c1Oc1ccnc(Nc2ccc3nncn3c2)n1 ... 0.30

Below: the item to evaluate.
Entry Cn1c(Cn2ccc(C(F)(F)F)c(Oc3cc(Cl)cc(C#N)c3)c2=O)n[nH]c1=O has what log10(EC50)?
1.00

* * *

Below: a set of entries, each annotated with reported CC50 at 120 h.
procedureSummary: Cytotoxicity against human MT4 cells assessed as reduction in cell viability measured after 5 days by MTT assay
Type: toxicity, cell-based
condition: time 5 day
// return numeric value only (unit: µM, not printed)

Cc1cc(/C=C/C#N)cc(C)c1Oc1ccnc(Nc2ccc3c(c2)CN(C)C3=O)n1 ... 40.4
Cc1cc(/C=C/C#N)cc(C)c1Oc1ccnc(Nc2ccc3c(c2)CN(CC#N)CC3)n1 ... 5.85

Entry Cc1cc(/C=C/C#N)cc(C)c1Oc1ccnc(Nc2ccc3c(c2)CCN(S(N)(=O)=O)C3)n1 has what CC50 at 120 h?
6.24

* * *

procedureSummary: in vitro
condition: human, MT4 cells
Description: Selectivity index, ratio of CC50 for human MT4 cells to EC50 for wild type HIV-1 IIIB infected in human MT4 cells
endpointName: selectivity ratio

Cc1cc(/C=C/C#N)cc(C)c1Oc1ccnc(Nc2ccc3c(cnn3C)c2)n1 ... > 18200

Entry Cc1cn([C@H]2C[C@H](N=[N+]=[N-])[C@@H](CO)O2)c(=O)[nH]c1=O [ZIDOVUDINE] has what selectivity ratio?
> 186

And then Cn1c(Cn2ccc(C(F)(F)F)c(Oc3cc(Cl)cc(C#N)c3)c2=O)n[nH]c1=O [DORAVIRINE] , what is it?
> 6760

* * *

Below: a set of entries, each annotated with reported EC50.
Tested on: Human immunodeficiency virus 1
procedureSummary: microbe, parasite or virus in culture
condition: Human immunodeficiency virus 1, IIIB, MT4, 120 h
Description: Antiviral activity against wild type HIV-1 IIIB infected in human MT4 cells assessed as protection against virus-induced cytopathic effect incubated for 5 days by MTT assay
// return numeric value only (unit: nM, not printed)

Worked cases, EC50 given:
COP(=O)(OC)N1CCc2cc(Nc3nccc(Oc4c(C)cc(/C=C/C#N)cc4C)n3)ccc2C1 ... 8
Cc1cc(/C=C/C#N)cc(C)c1Oc1ccnc(Nc2ccc3c(c2)CCN(S(C)(=O)=O)C3)n1 ... 7
Cc1cc(/C=C/C#N)cc(C)c1Oc1ccnc(Nc2ccc3sccc3c2)n1 ... 8
Cc1cc(/C=C/C#N)cc(C)c1Oc1ccnc(Nc2ccc3nsnc3c2)n1 ... 7
Cc1cc(/C=C/C#N)cc(C)c1Oc1ccnc(Nc2ccc3c(c2)CN(C(=O)CS(C)(=O)=O)CC3)n1 ... 17

What measured EC50 is associated with Cc1cc(/C=C/C#N)cc(C)c1Oc1ccnc(Nc2ccc3c(c2)C(=O)N(C)C3=O)n1 on Human immunodeficiency virus 1?
6

And then Cc1cc(/C=C/C#N)cc(C)c1Oc1ccnc(Nc2ccc3c(c2)CCN(C(=O)CS(C)(=O)=O)C3)n1 , what is it?
9

And then Cc1nc2cc(Nc3nccc(Oc4c(C)cc(/C=C/C#N)cc4C)n3)ccc2o1 , what is it?
8

And then Cc1cc(/C=C/C#N)cc(C)c1Oc1ccnc(Nc2ccc3c(c2)CCN(S(N)(=O)=O)C3)n1 , what is it?
8

And then Cc1cc(/C=C/C#N)cc(C)c1Oc1ccnc(Nc2ccc3c(c2)OCO3)n1 , what is it?
8

And then Cc1cc(/C=C/C#N)cc(C)c1Oc1ccnc(Nc2ccc3c(c2)CN(S(N)(=O)=O)CC3)n1 , what is it?
16

And then Cc1cc(/C=C/C#N)cc(C)c1Oc1ccnc(Nc2ccc3c(c2)OCCO3)n1 , what is it?
14
